- tested-target: T1, 4H2503-bA
- T1 chain: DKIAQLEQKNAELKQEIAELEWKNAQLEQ
- measurement-notes: two-hybrid library CCNG1;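 note: natural log of median RNA to DNA barcode read ratio; higher means stronger binding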
Property: interaction score; scope: individual binders
Kindly provide the number alone.

Recorded interaction score, per entry:
DEIAQLEQEIAELKQKNAELKWEIAQLEQ [4H121-bA] | -1.32
DKIAQLEQKNAELEQKIAELKWEIAQLEQ [4H2473-bA] | 0.82
DKIAQLEQENAELEQKIAELKWKNAQLEQ [4H2223-bA] | 1.47

## Task I'd like to know its interaction score. The binder in question is DKIAQLEQKNAELKQEIAELEWKNAQLEQ [4H2503-bA]
## Result -0.591

## Task Queued: DKIAQLEQEIAELKQENAELEWKIAQLKQ [4H2134-bA]
## Result 0.834

## Task Queued: DKIAQLEQKNAELEQEIAELEWKIAQLKQ [4H2438-bA]
## Result 0.927

## Task Queued: DEIAQLEQENAELEQKNAELEWKIAQLKQ [4H182-bA]
## Result -0.357

## Task Queued: DKIAQLEQEIAELKQENAELKWKNAQLEQ [4H2143-bA]
## Result -0.661
